Values were extracted from ChEMBL document CHEMBL3297682.

- System: MCF7
- test_protocol: Antiproliferative activity against human MCF7 cells after 24 hrs by MTT assay
- Type: functional, cell-based
- condition_details: MCF7, 24 h
assay_endpoint: pIC50
Answer as the number alone; pIC50 is minus log10 of concentration in mol/L.

Here are 3 molecules together with their reported answers.
IN: Give the value of pIC50 reported for the following: CC(C)(C)c1ccc(-c2cn(CCC3(O)NC(=O)C(OCc4ccccc4)=C3OCc3ccccc3)nn2)cc1 (stereo not drawn)
OUT: 4.60

IN: Give the value of pIC50 reported for the following: O=C1NC(O)(CCn2cc(-c3ccccc3)nn2)C(OCc2ccccc2)=C1OCc1ccccc1 (stereo not drawn)
OUT: 4.69

IN: Give the value of pIC50 reported for the following: COC1=C(OC)/C(=C/Cn2cc(CCCCO)nn2)OC1=O
OUT: 4.46

Continuing:
IN: Give the value of pIC50 reported for the following: CCCCCCCCN1C(=O)C(OCc2ccccc2)=C(OCc2ccccc2)C1(O)CCn1cc(-c2ccccn2)nn1 (stereo not drawn)
OUT: 4.61

IN: Give the value of pIC50 reported for the following: O=C1O/C(=C\Cn2cc(Cc3ccccc3)nn2)C(OCc2ccccc2)=C1OCc1ccccc1
OUT: 4.40

IN: Give the value of pIC50 reported for the following: CCCCCCCCN1C(=O)C(OCc2ccccc2)=C(OCc2ccccc2)/C1=C/Cn1cc(-c2ccccn2)nn1
OUT: 4.34

IN: Give the value of pIC50 reported for the following: O=C1O/C(=C\Cn2cc(CCCCO)nn2)C(OCc2ccccc2)=C1OCc1ccccc1
OUT: 4.27

IN: Give the value of pIC50 reported for the following: COC1=C(OC)C(O)(CCn2cc(-c3ccccc3)nn2)NC1=O (stereo not drawn)
OUT: 4.65

IN: Give the value of pIC50 reported for the following: O=C1NC(O)(CCn2cc(Cc3ccccc3)nn2)C(OCc2ccccc2)=C1OCc1ccccc1 (stereo not drawn)
OUT: 4.41

IN: Give the value of pIC50 reported for the following: CC(C)(C)c1ccc(-c2cn(CCC3(O)C(OCc4ccccc4)=C(OCc4ccccc4)C(=O)N3CCc3ccccc3)nn2)cc1 (stereo not drawn)
OUT: 4.49

IN: Give the value of pIC50 reported for the following: CCCc1cn(C/C=C2/C(OCc3ccccc3)=C(OCc3ccccc3)C(=O)N2CCC)nn1
OUT: 4.18

---

- System: HEK293
- test_protocol: Cytotoxicity against human HEK293 cells after 24 hrs by MTT assay
- Type: cell-based
- condition_details: HEK293, 24 h
Listing of recorded IC50 by entry.

Here are 3 molecules together with their reported answers.
IN: Provide IC50, system HEK293, entry O=C1NC(O)(CCn2cc(C3=CCCCC3)nn2)C(OCc2ccccc2)=C1OCc1ccccc1 (centres undefined)
OUT: 70 µM

IN: Provide IC50, system HEK293, entry Cc1ccc(-c2cn(C/C=C3\OC(=O)C(OCc4ccccc4)=C3OCc3ccccc3)nn2)cc1
OUT: > 100 µM

IN: Provide IC50, system HEK293, entry CCCCCCCCN1C(=O)C(OCc2ccccc2)=C(OCc2ccccc2)C1(O)CCn1cc(-c2ccccn2)nn1 (centres undefined)
OUT: > 100 µM

We next turn to a different molecule, shown below.
IN: Provide IC50, system HEK293, entry COC1=C(OC)/C(=C/Cn2cc(-c3ccccc3)nn2)OC1=O
OUT: > 100 µM
